Protocol text: Dynamic vapor sorption (DVS) with XRPD of the post-DVS sample
Type: physicochemical
Details: 25° C., adsorption 5 to 95% RH
Quick rule: moisture gain by DVS of at least 0.5% means class 1, below that means class 0.

Study these solved cases before continuing.
COc1cc(CCN)c(OC)cc1Br.O=S(=O)(O)O [Sulfate, 2C-B sulfate]	class 1
COc1cc(CCN)c(OC)cc1Br.O=S(=O)(O)c1ccccc1 [Besylate (Form 1), 2C-B besylate]	class 1
COc1cc(CCN)c(OC)cc1Br.CS(=O)(=O)O [Mesylate, 2C-B mesylate]	class 1
COc1cc(CCN)c(OC)cc1Br.O=C(O)C(O)C(O)C(=O)O [Tartrate (Form 1)]	class 0

From here, focus on the item given below.
Record COc1cc(CCN)c(OC)cc1Br.O=C(O)c1cc(O)ccc1O [Gentisate, 2C-B gentisate] ; criterion: moisture gain by DVS no lower than 0.5%. Met?
class 0

---

Protocol text: Dynamic vapor sorption/desorption (DVS), hygroscopicity
Type: physicochemical
Details: grade in words, from DVS
Readout kind: Hygroscopicity

Recorded results for 4 compounds are shown here.
COc1cc(CCN)c(OC)cc1Br.O=C(O)CC(O)(CC(=O)O)C(=O)O [Citrate (Form 2), 2C-B Citrate]	Slightly
COc1cc(CCN)c(OC)cc1Br.O=S(=O)(O)O [Sulfate, 2C-B sulfate]	Slightly
COc1cc(CCN)c(OC)cc1Br.O=C(O)C(O)C(O)C(=O)O [Tartrate (Form 1)]	Non-hygroscopic;
COc1cc(CCN)c(OC)cc1Br.O=C(O)c1cc(O)ccc1O [Gentisate, 2C-B gentisate]	Non-hygroscopic;

# context switch: different compound, same Hygroscopicity
Using the record for COc1cc(CCN)c(OC)cc1Br.O=S(=O)(O)c1ccccc1 [Besylate (Form 1), 2C-B besylate] , report its Hygroscopicity.
Slightly

---

Protocol text: Dynamic vapor sorption (DVS) with XRPD of the post-DVS sample
Assay type: physicochemical
Details: XRPD of the post-DVS sample
Readout kind: post-DVS XRPD result

COc1cc(CCN)c(OC)cc1Br.O=C(O)c1cc(O)ccc1O [Gentisate, 2C-B gentisate]	Crystalline, consistent
COc1cc(CCN)c(OC)cc1Br.O=C(O)C(O)C(O)C(=O)O [Tartrate (Form 1)]	Crystalline, consistent

---

Protocol text: Solubility estimate by adding solvent aliquots to weighed solid, dissolution judged visually
Details: isopropanol, organic solvent or mixture, thermodynamic from solid
Where a name gives a salt, the structure may show the parent alone.
Readout kind: solubility

Using the record for COc1cc(CCN)c(OC)cc1Br [2C-B.HCl] , report its solubility.
< 2000 µg/mL

---

Protocol text: Solubility estimate by adding solvent aliquots to weighed solid, dissolution judged visually
Details: water, thermodynamic from solid
Structures can show the parent of a compound that is named as a salt.
Readout kind: solubility (mg/mL)
One number for each entry, in mg/mL.

Using the record for COc1cc(CCN)c(OC)cc1Br [2C-B.HCl] , report its solubility.
34

---

Protocol text: Estimated solubilities of 2C-B HCl in solvents
Details: MeOH/CHCl3 50/50, organic solvent or mixture, thermodynamic from solid
Readout kind: solubility
Please make sure the unit comes right after the number.

Using the record for COc1cc(CCN)c(OC)cc1Br.Cl [2C-B HCl, 4-bromo-2,5-dimethoxyphenethylamine HCl] , report its solubility.
41 mg/mL

---

Protocol text: Estimated solubilities of 2C-B HCl in solvents
Details: acetone/H2O 80/20, organic solvent or mixture, thermodynamic from solid
Readout kind: solubility

Using the record for COc1cc(CCN)c(OC)cc1Br.Cl [2C-B HCl, 4-bromo-2,5-dimethoxyphenethylamine HCl] , report its solubility.
≥ 79 mg/mL
